Examples of compounds with documented CC50 at 72 h follow.
- method: Cytotoxicity concurrent with EBV primary assay
- measurement context: human, Akata cells without virus induction
Field: value (include unit after the number)

# compound, endpoint, reported result
data = [
    ("Fc1ccc2c(c1)nn1cnc(NC3CCSCC3)cc21", "CC50 at 72 h", "50 µM"),
    ("CN1CCC(Nc2cc3c4ccc(F)cc4nn3cn2)CC1", "CC50 at 72 h", "50 µM"),
    ("CN(C(=O)OC(C)(C)C)C1CCC(Nc2cc3c4ccc(F)cc4nn3cn2)CC1 (stereo not drawn)", "CC50 at 72 h", "39.4 µM"),
    ("CNC1CCC(Nc2cc3c4ccc(F)cc4nn3cn2)CC1 (stereo not drawn)", "CC50 at 72 h", "33.5 µM"),
    ("Fc1ccc2c(c1)nn1cnc(NC3CCCOCC3)cc21 (stereo not drawn)", "CC50 at 72 h", "50 µM"),
]

GET /values?readout=CC50 at 72 h&item= O=S1(=O)CCC(Nc2cc3c4ccc(F)cc4nn3cn2)CC1 50 µM

GET /values?readout=CC50 at 72 h&item= CN(C)CC1CCC(Nc2cc3c4ccc(F)cc4nn3cn2)CC1 (stereo not drawn) 50 µM

GET /values?readout=CC50 at 72 h&item= NCC1CCC(Nc2cc3c4ccc(F)cc4nn3cn2)CC1 (stereo not drawn) 6.69 µM

GET /values?readout=CC50 at 72 h&item= CC(C)(C)OC(=O)N[C@H]1CCC(Nc2cc3c4ccc(F)cc4nn3cn2)C1 (stereo partly drawn) 31.9 µM
